Target: Aurora kinase B (Homo sapiens, UniProt Q96GD4); also: in the data inactive means no Kd found up to 30 µM
Sequence (Q96GD4 whole entry): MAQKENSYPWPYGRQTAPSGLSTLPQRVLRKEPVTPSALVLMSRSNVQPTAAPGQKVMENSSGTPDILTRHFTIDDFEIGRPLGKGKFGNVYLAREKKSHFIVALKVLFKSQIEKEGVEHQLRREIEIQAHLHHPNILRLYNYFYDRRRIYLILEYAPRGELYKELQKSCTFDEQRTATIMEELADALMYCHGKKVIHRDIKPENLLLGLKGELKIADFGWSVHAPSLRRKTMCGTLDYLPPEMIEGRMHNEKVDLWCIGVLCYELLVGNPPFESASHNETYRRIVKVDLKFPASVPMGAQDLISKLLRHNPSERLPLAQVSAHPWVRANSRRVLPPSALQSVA
Calls of active or inactive are those of the source.
Answer with one of the outcomes given here: active, inactive

Molecule: C[C@@H](NC(=O)c1ncnc(N)c1Cl)c1ncc(C(=O)Nc2cc(C(F)(F)F)c(Cl)cn2)s1
System name: Aurora kinase B (Homo sapiens, UniProt Q96GD4); also: in the data inactive means no Kd found up to 30 µM
Qualitative label: inactive

Molecule: O=C(Nc1cc(C(F)(F)F)cc(C(F)(F)F)c1)c1cc(Cl)ccc1O
System name: Aurora kinase B (Homo sapiens, UniProt Q96GD4); also: in the data inactive means no Kd found up to 30 µM
Qualitative label: inactive

Molecule: Cn1cc(-c2cnn3c(N)c(Br)c([C@@H]4CCCNC4)nc23)cn1
System name: Aurora kinase B (Homo sapiens, UniProt Q96GD4); also: in the data inactive means no Kd found up to 30 µM
Qualitative label: inactive

Molecule: CO[C@H]1C[C@@H]2CC[C@@H](C)[C@@](O)(O2)C(=O)C(=O)N2CCCC[C@H]2C(=O)O[C@H]([C@H](C)C[C@@H]2CC[C@@H](OC(=O)C(C)(CO)CO)[C@H](OC)C2)CC(=O)[C@H](C)/C=C(\C)[C@@H](O)[C@@H](OC)C(=O)[C@H](C)C[C@H](C)/C=C/C=C/C=C/1C
System name: Aurora kinase B (Homo sapiens, UniProt Q96GD4); also: in the data inactive means no Kd found up to 30 µM
Qualitative label: inactive

Molecule: C=CC(=O)Nc1cc2c(Nc3ccc(F)c(Cl)c3)ncnc2cc1C#CC(C)(C)N1CCN(C)CC1 [AV-412 FREE BASE]
System name: Aurora kinase B (Homo sapiens, UniProt Q96GD4); also: in the data inactive means no Kd found up to 30 µM
Qualitative label: inactive

Req: Returns: the outcome recorded for CN(C[C@@H]1COCCO1)S(=O)(=O)Nc1ccc2ccc3ncc(-c4cnn(C)c4)cc3c(=O)c2c1 in this assay.
Resp: inactive

Req: Returns: the outcome recorded for Cc1cc(C(=O)NOCCO)c(Nc2ccc(I)cc2F)n(C)c1=O in this assay.
Resp: inactive

Req: Returns: the outcome recorded for Cc1cccc(-c2nn3c(c2-c2ccnc4ccc(C(N)=O)cc24)CCC3)n1 in this assay.
Resp: inactive

Req: Returns: the outcome recorded for Nc1ncnc2c1c(-c1cccc(OCc3ccccc3)c1)cn2[C@H]1C[C@@H](CN2CCC2)C1 in this assay.
Resp: inactive

Req: Returns: the outcome recorded for CO[C@H]1C[C@@H]2CC[C@@H](C)[C@@](O)(O2)C(=O)C(=O)N2CCCC[C@H]2C(=O)O[C@H]([C@H](C)C[C@@H]2CC[C@@H](O)[C@H](OC)C2)CC(=O)[C@H](C)/C=C(\C)[C@@H](O)[C@@H](OC)C(=O)[C@H](C)C[C@H](C)/C=C/C=C/C=C/1C in this assay.
Resp: inactive

Req: Returns: the outcome recorded for CC(C)c1cc(CNc2nc(Nc3cc(C4CC4)[nH]n3)cc(N3CCN(C)CC3)n2)on1 in this assay.
Resp: active

Req: Returns: the outcome recorded for C#Cc1cccc(Nc2ncnc3cc(OC)c(OCCCCCCC(=O)NO)cc23)c1 in this assay.
Resp: inactive

Req: Returns: the outcome recorded for COc1c(OCCCN2CCOCC2)ccc2c1N=C(NC(=O)c1cnc(N)nc1)N1CCN=C21 in this assay.
Resp: inactive

====

Molecular target: Non-receptor tyrosine-protein kinase TNK1 (Homo sapiens); also: in the data inactive means no Kd found up to 30 µM
Sequence (Q13470 whole entry): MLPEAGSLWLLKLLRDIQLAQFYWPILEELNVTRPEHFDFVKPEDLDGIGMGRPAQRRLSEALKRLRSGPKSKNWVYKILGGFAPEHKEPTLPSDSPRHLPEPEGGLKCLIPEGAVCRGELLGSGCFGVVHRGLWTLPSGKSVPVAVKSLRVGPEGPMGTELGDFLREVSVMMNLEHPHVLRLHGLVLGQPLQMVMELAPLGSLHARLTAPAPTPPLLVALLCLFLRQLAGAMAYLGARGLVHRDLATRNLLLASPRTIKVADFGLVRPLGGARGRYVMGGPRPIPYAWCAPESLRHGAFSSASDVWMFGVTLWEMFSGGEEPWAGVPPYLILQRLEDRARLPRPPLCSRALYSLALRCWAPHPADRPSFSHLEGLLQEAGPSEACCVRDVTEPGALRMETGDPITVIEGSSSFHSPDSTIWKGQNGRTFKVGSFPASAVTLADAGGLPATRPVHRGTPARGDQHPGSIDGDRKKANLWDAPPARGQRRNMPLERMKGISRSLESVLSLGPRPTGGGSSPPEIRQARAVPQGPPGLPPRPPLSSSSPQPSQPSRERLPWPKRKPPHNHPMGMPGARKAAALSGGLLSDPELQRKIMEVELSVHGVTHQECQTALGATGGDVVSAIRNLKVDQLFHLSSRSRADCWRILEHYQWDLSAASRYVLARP
Activity calls are given as the source filed them.
Answer with one of the outcomes given here: active, inactive

Molecule: CCOc1cc2ncc(C#N)c(Nc3ccc(F)c(Cl)c3)c2cc1NC(=O)/C=C/CN(C)C
Qualitative label: inactive

Kindly review the next molecule as well.
Req: Returns: the outcome recorded for CC(=O)c1cnc2ccc(-c3cc(Cl)c(O)c(Cl)c3)nc2c1N[C@H]1CC[C@H](CN(C)C)CC1 in this assay.
Resp: active

====

Target: Casein kinase I isoform epsilon (Homo sapiens, UniProt P49674); also: in the data inactive means no Kd found up to 30 µM
Sequence (P49674 whole entry, canonical isoform): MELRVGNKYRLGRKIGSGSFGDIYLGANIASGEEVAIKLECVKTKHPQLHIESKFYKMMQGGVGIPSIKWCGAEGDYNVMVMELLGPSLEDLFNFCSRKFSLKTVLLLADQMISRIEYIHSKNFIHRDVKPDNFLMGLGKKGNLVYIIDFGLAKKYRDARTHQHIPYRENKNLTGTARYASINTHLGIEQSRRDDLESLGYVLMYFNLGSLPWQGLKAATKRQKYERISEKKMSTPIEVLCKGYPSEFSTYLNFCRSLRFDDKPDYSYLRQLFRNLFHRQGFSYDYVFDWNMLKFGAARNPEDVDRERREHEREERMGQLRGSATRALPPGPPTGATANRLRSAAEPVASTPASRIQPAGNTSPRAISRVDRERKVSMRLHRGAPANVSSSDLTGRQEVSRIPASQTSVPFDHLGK
Counter-ions that a name gives are not always drawn. Calls of active or inactive are those of the source.
Answer with one of the outcomes given here: y (active), n (inactive)

Compound: Cc1cnc(NC(=O)Nc2cc(Br)c(C)cc2OC[C@@H]2CNCCO2)cn1
Qualitative label: n
--
Compound: COc1cc2ncnc(Oc3cccc(NC(=O)Nc4cc(C(C)(C)C(F)(F)F)on4)c3)c2cc1OC
Qualitative label: n
--
Compound: CCS(=O)(=O)N1CCN(c2ccc(Nc3ncc(C(N)=O)c(NC4CC4)n3)cc2)CC1 [Cerdulatinib Hydrochloride]
Qualitative label: n
--
Compound: CC(C)(C)c1nc(-c2cccc(NS(=O)(=O)c3c(F)cccc3F)c2F)c(-c2ccnc(N)n2)s1
Qualitative label: n
--
Compound: COc1cc(Nc2ncc3c(n2)-c2ccc(Cl)cc2C(c2c(F)cccc2OC)=NC3)ccc1C(=O)O
Qualitative label: n

Req: Returns: the outcome recorded for COc1ccc(S(=O)(=O)N(C(C)=O)c2ccccc2/C=C/c2cc[n+]([O-])cc2)cc1 in this assay.
Resp: n

Req: Returns: the outcome recorded for COc1cc([C@@H]2c3cc4c(cc3[C@H](O)[C@H]3COC(=O)[C@@H]23)OCO4)cc(OC)c1OC in this assay.
Resp: n

Req: Returns: the outcome recorded for O=C(Nc1c[nH]nc1-c1nc2cc(CN3CCOCC3)ccc2[nH]1)NC1CC1 in this assay.
Resp: n

Req: Returns: the outcome recorded for N#CC1(c2ccc(NC(=O)c3cccnc3NCc3ccncc3)cc2)CCCC1 in this assay.
Resp: n

Req: Returns: the outcome recorded for CC(C)c1cc(CNc2nc(Nc3cc(C4CC4)[nH]n3)cc(N3CCN(C)CC3)n2)on1 in this assay.
Resp: n

Req: Returns: the outcome recorded for CNC(=O)c1cc(Oc2ccc(NC(=O)Nc3cc(C(C)(C)C)nn3-c3ccc4ncccc4c3)c(F)c2)ccn1 in this assay.
Resp: n

Req: Returns: the outcome recorded for NC1(c2ccc(-c3nc4ccn5c(=O)[nH]nc5c4cc3-c3ccccc3)cc2)CCC1 in this assay.
Resp: n

Req: Returns: the outcome recorded for O=C(Nc1nc2cccc(-c3ccc(CN4CCS(=O)(=O)CC4)cc3)n2n1)C1CC1 in this assay.
Resp: n

Req: Returns: the outcome recorded for Cc1cc(C(=O)NOCCO)c(Nc2ccc(I)cc2F)n(C)c1=O in this assay.
Resp: n

Req: Returns: the outcome recorded for C[C@@H](Oc1cc(C(=O)Nc2ccc(C(=O)N3CCN(C)CC3)cc2)nnc1N)c1c(Cl)ccc(F)c1Cl in this assay.
Resp: n

Req: Returns: the outcome recorded for Cn1cc(-c2cnn3c(N)c(Br)c([C@@H]4CCCNC4)nc23)cn1 in this assay.
Resp: n

Req: Returns: the outcome recorded for CN(C[C@@H]1COCCO1)S(=O)(=O)Nc1ccc2ccc3ncc(-c4cnn(C)c4)cc3c(=O)c2c1 in this assay.
Resp: n

Req: Returns: the outcome recorded for CCOc1cc2ncc(C#N)c(Nc3ccc(F)c(Cl)c3)c2cc1NC(=O)/C=C/CN(C)C in this assay.
Resp: y

Req: Returns: the outcome recorded for CCn1cc(-c2ccnc3[nH]c(-c4cccc(CN(C)C)c4)cc23)c(-c2ccc(NC(=O)N(C)C)cc2)n1 in this assay.
Resp: n

Req: Returns: the outcome recorded for Cn1ncc(Cl)c1-c1cc(C(=O)N[C@H](CN)Cc2ccc(F)c(F)c2)oc1Cl in this assay.
Resp: n

Req: Returns: the outcome recorded for CN1CCN(CCOc2cc(OC3CCOCC3)c3c(Nc4c(Cl)ccc5c4OCO5)ncnc3c2)CC1 in this assay.
Resp: n

Req: Returns: the outcome recorded for CCNC(=O)C#Cc1ccc2c(c1)NC(=O)/C2=C(\Nc1ccc(CN(C)C)cc1)c1ccccc1 in this assay.
Resp: n

Req: Returns: the outcome recorded for CCS(=O)(=O)c1cccc(-c2cc(C(=O)NC3CCN(C)CC3)c(C)c3[nH]c4ncc(C)cc4c23)c1 in this assay.
Resp: n

Req: Returns: the outcome recorded for CO[C@H]1C[C@@H]2CC[C@@H](C)[C@@](O)(O2)C(=O)C(=O)N2CCCC[C@H]2C(=O)O[C@H]([C@H](C)C[C@@H]2CC[C@@H](OP(C)(C)=O)[C@H](OC)C2)CC(=O)[C@H](C)/C=C(\C)[C@@H](O)[C@@H](OC)C(=O)[C@H](C)C[C@H](C)/C=C/C=C/C=C/1C in this assay.
Resp: n

Req: Returns: the outcome recorded for CN1C/C=C/CCOc2cccc(c2)-c2ccnc(n2)Nc2cccc(c2)C1 in this assay.
Resp: n

Req: Returns: the outcome recorded for Cc1nc2cc(-n3ncc(C(=O)c4cc5ccccc5[nH]4)c3N)ccc2[nH]1 in this assay.
Resp: n

Where do these numbers come from? They come from ChEMBL document CHEMBL3991601.
